This collection of values is drawn from a melting point compilation (Tetko et al.; mined from patent text by program, amines drawn as free bases though some values may be those of a salt).

measured_property: melting point

In: State, in one line, measured melting point of CCCCCCCCCCCCCCCCCC(=O)NCCOC(=O)C1=CC(C(C)(C)C)C(O)(C(C)(C)C)C=C1 (stereo unspecified)
Out: 56 to 58 °C

In: Hello, please tell me recorded melting point for this one: CCC(=O)OCC1OC(n2cc(F)c(=O)n(C(=O)c3cccc(OC)c3OC)c2=O)CC1OC(=O)CC (stereo unspecified)
Out: 84.5 to 86 °C

In: # return recorded melting point for input CCCS(=O)(=O)NCc1ccc2ccn(C3CCN(CCc4ccc(F)cc4)CC3)c2c1
Out: 80 to 81 °C

Further cases:
In: Output measured melting point for this item: CNS(=O)(=O)/C=C/c1ccc2[nH]cc(C3CCN(C)CC3)c2c1
Out: 190 to 192 °C

In: Consider the molecule Cc1cccc2c(=O)nc(-c3ccccn3)sc12 . State its measured melting point.
Out: 198 °C

In: Consider the molecule CCCN(CCCCNC(=O)NC1Cc2ccccc2C1)C1CCc2ncsc2C1 (stereo unspecified) . State its measured melting point.
Out: 93 °C

In: Supply recorded melting point for Cc1oc(C2(C)CC=CCC2)nc1CC(=O)O (stereo unspecified) here.
Out: 144 to 145 °C

In: Using the record for Cc1cccc(OCC(F)(F)F)c1N(Cc1cc[nH]n1)C(=O)CCl , state its measured melting point.
Out: 104 to 105 °C

In: Identify measured melting point associated with NC(=O)CCCC(=O)NCCS
Out: 127 °C

In: // Input: CC(O)=C(C#N)C(=O)Nc1cc(Cl)ccc1Cl . Output its melting point only.
Out: 143 to 144 °C

In: Provide only the value of recorded melting point for NS(=O)(=O)c1ccc(NC(=O)c2cccnc2SSc2ncccc2C(=O)Nc2ccc(S(N)(=O)=O)cc2)cc1
Out: 280 °C

In: Check the records and state melting point for C=CCOc1ccc2cn[nH]c2c1
Out: 110 to 112 °C

In: Return the recorded melting point value; entry: CCOC(=O)c1[nH]c(C)nc1C
Out: 165 to 166 °C

In: Hello, please tell me recorded melting point for this one: CCC1C(C)=NN=C(c2ccccc2)c2ccc(OC)cc21 (stereo unspecified)
Out: 162 to 163 °C

----------
# melting point listing for each entry below

# count of solved cases: 3
In: Output measured melting point for this item: Cc1cn(C(C)C(=O)N2CCCC2)nc1-c1ccccc1 (stereo not given)
Out: 72 to 74 °C

In: For the compound NS(=O)(=O)c1ccco1 , give its reported melting point.
Out: 120 to 122 °C

In: Determine its reported melting point: COc1cc(C(F)(F)F)cnc1O
Out: 115 to 117 °C

---
In: Please report melting point for the following compound: COC(=O)c1ccc(/C=C/c2c(OC)cc3c(c2OC)C(C)(C)CCC3(C)C)cc1
Out: 140 to 142 °C

In: Answer with the recorded melting point for the compound listed here: CC(C)(C)NC(=O)CN(C(=O)CN1C(=O)c2ccccc2C1=O)c1ccccc1
Out: 166 °C

In: Complete the entry with melting point for COC(=O)c1c(C(C)(C)O)nc(C(C)OC)n1Cc1ccc(-c2ccccc2-c2nnnn2C(c2ccccc2)(c2ccccc2)c2ccccc2)cc1 (stereo not given)
Out: 131 to 133 °C

In: Please indicate melting point recorded for CCCCCCCCCCCCCCCCC1CC(=O)N(NC(=O)CCc2cc(C(C)(C)C)c(O)c(C(C)(C)C)c2)C1=O (stereo not given)
Out: 85 °C

In: Output melting point of Cc1ccc2c(c1)C(C(=O)Nc1c(Br)cccc1Br)c1ccccc1CO2 (stereo not given)
Out: 184 °C

In: # return recorded melting point for input CC(=O)Nc1ccc(OCC(O)CNC(C)(C)C)c(C2=NNC(=O)CC2)c1 (stereo not given)
Out: 102 to 109 °C

In: Return melting point for the following compound: COC(=O)CCCCCCC1C(=O)CCN1C(=O)c1ccc(-c2ccccc2)cc1 (stereo not given)
Out: 90 to 92 °C

In: Output melting point of COc1ccc(S(=O)(=O)C2(C(=O)NO)CCN(Cc3ccc(C)cc3)CC2)cc1
Out: 176 to 177 °C

In: Indicate the recorded melting point value for this compound: O=C(O)CCCCCOc1cccc2occc12
Out: 86 to 87 °C

In: Give reported melting point value for O=CNNc1ccc(NC(=S)N2CC=CC2)cc1
Out: 218 to 220 °C

In: Recall and state the measured melting point for NC(=S)N1CCCCc2cccnc21 .
Out: 121 °C

In: Let me know recorded melting point for Cc1c(Br)nc2n1CCc1ccccc1C2=C1CCN(C)CC1 , thanks.
Out: 116 °C

In: Identify measured melting point associated with CNC(=O)c1cc(O)cc2c1N(C)C1N(C)CCC21C (stereo not given)
Out: 202 to 204 °C

----------
Measured melting point, listed per entry for reference.

Solved cases below.
In: Look up and state reported melting point for CC(=O)c1c(N2CCCC2)nn2ccccc12
Out: 59.5 to 60 °C

In: Answer with the recorded melting point for the compound listed here: COc1ccc(N2CCc3c2c2cccc(OC)c2[nH]c3=O)c(C)c1
Out: 188 to 191 °C

In: Determine its reported melting point: Cn1c(C(F)(F)F)cc(=O)n(-c2cc(Oc3ccc4cc(O)ccc4c3)c(C#N)cc2F)c1=O
Out: 174 °C

Further cases:
In: Tell me melting point reported for CN1CCC(C2(C(N)=O)Cc3ccc([N+](=O)[O-])cc3C2=O)CC1 (stereo not given)
Out: 189 to 190 °C

In: Kindly indicate its recorded melting point. Item: Brc1ccc2c(c1)CCOC2CCN1CCN(c2ccc(OCc3ccccc3)cc2)CC1 (stereo not given)
Out: 87 to 90 °C

In: Give a short answer stating reported melting point for N#CC1=C(Nc2cc(C(F)(F)F)ccc2N)CSC1 .
Out: 189 °C

In: Output measured melting point for this item: Fc1ccc(-n2cc(C3CCN(CCN4CCNC4=S)CC3)c3ccc(Cl)cc32)cc1
Out: 184 to 186 °C

In: Provide melting point value for the following compound: CCOC(=O)c1ccc(-c2ncc(-c3ccc(Cl)cc3)s2)cc1
Out: 167 to 168 °C

In: Indicate the recorded melting point value for this compound: CNS(=O)(=O)c1cc2c(c(C(=O)OC)c1)OCCO2
Out: 159 to 160 °C

In: Tell me measured melting point for CC(C)(C)n1nnc(NC(=O)C2c3ccccc3Oc3ccccc32)n1 please.
Out: 230 to 231 °C

----------
Reported melting point is given for each of the following compounds.

In: Note melting point for the compound shown: Cc1ccc(N(C)C)cc1C=O
Out: 64 to 65 °C

In: Check the records and state melting point for Cn1cc(Br)nc(Nc2cccnc2)c1=O
Out: > 250 °C

In: Provide measured melting point value, entry: O=C(Nc1ccccc1)OCC1CSC2=C(O1)c1ccccc1C(=O)C2=O (centres undefined)
Out: 250 to 252 °C

---
In: Provide only the value of recorded melting point for CCCN(Cc1cccc(-c2noc(C)n2)c1)C(=O)Cc1ccc(-c2ccccc2S(=O)(=O)NC(C)(C)C)cc1
Out: 132 to 133 °C

In: Using the record for Oc1c(Br)cc(Cl)cc1Cc1cc(F)cc(Cc2cc(Cl)cc(Br)c2O)c1O , state its measured melting point.
Out: 164 °C

In: Report melting point, nothing else, for this compound: O=C(O)c1cnc2n1CCc1ccccc1C2=C1CCN(CCc2ccc(OCc3ccc4ccccc4n3)cc2)CC1
Out: 174 °C

In: Provide melting point value for the following compound: N#Cc1ccc(N2C(=O)N(CCF)C3(CCCC3)C2=O)cc1C(F)(F)F
Out: 115 °C

In: Consider the compound CCCC(O)(CCC)c1ccc(Cl)c2nc3n(c12)CCCN3c1ccc(Cl)cc1Cl and give its recorded melting point.
Out: 133 to 135 °C

In: // Input: CC(C#CCOc1cccc(Oc2ccccn2)c1)N(O)C(N)=O (centres undefined) . Output its melting point only.
Out: 117 to 119 °C

----------
Entries and their melting point

In: Determine from records and report melting point for COc1ccccc1C(CO)c1c[nH]c2c(=O)[nH]c(N)nc12 (stereo unspecified)
Out: 262 to 265 °C

In: Complete the entry with melting point for O=S(=O)(N[C@H](CO)[C@@H](c1cc(F)cc(F)c1)C(F)(F)F)c1ccc(Cl)s1
Out: 126 °C

In: Supply melting point value. Item: CON(C)C(=O)Nc1ccc(OCCc2ccc(C(C)C)cc2)cc1
Out: 81 to 82 °C

In: Quote melting point reported for OC(COc1ccccc1Br)C(Cl)(Cl)Cl (stereo unspecified) please.
Out: 88 to 90 °C

In: Note down melting point recorded for Clc1ccc2cc(Br)sc2n1
Out: 116 °C

In: Answer with reported melting point of CCCc1cn(CCO)nc1OCc1ccc2ccccc2n1
Out: 61 to 62 °C

In: Identify melting point associated with the compound CCOC(=O)C1=CC(=NO)[C@@H](NC(C)=O)[C@@H]2OC(C)(C)O[C@H]12
Out: 106 to 116 °C

In: Look up and state reported melting point for OC(c1cccc(Oc2ccccc2)n1)C(F)(F)F (stereo unspecified)
Out: 51.5 to 53.5 °C

In: Return the recorded melting point value; entry: COc1cc2c(cc1Nc1ncc(Cl)c(Nc3ccccc3S(=O)(=O)N(C)C)n1)CCN(CC(=O)N1CCN(C)CC1)CC2
Out: 140 °C

In: Answer with the recorded melting point of NC(=S)Nc1ccccc1-c1ccc(F)cc1 only.
Out: 140 to 142 °C

Further cases:
In: Identify measured melting point associated with Cc1ccnc2[nH]c(C3CC3)nc12
Out: 203 to 204 °C
